// MIC collected for Escherichia coli K-12 LA290 R55
Give bare numbers, in µg/mL.

CNCC1CCC(O)C(OC2C(N)CC(O)C(N(C)C(=O)CCN)C2O)O1 (centres unmarked): 6.25
CNCC1CCC(O)C(OC2C(N)CC(OC)C(N(C)C(=O)CN)C2O)O1 (centres unmarked) [Compound No. 1, 2'-Deamino-2'-hydroxyistamycin B]: 6.25
CNCC1CCC(O)C(OC2C(N)CC(O)C(N(C)C(=O)CN)C2O)O1 (centres unmarked): 6.25
CNCC1CCC(N)C(OC2C(N)CC(OC)C(N(C)C(=O)CN)C2O)O1 (centres unmarked): 3.13

Let us move to another entry and its MIC.
Exam item: Data request, read-out MIC, for CNCC1CCC(O)C(OC2C(N)CC(OC)C(N(C)C(=O)CCN)C2O)O1 (centres unmarked)
Marked response: 12.5

----------
# Tested on: Bacillus subtilis NRRL B-558
# assay: Antibacterial spectrum, standard serial dilution method
# Assay type: cell-based
# details: NRRLB558; Bacillus subtilis NRRL B-558; Muller-Hinton medium, 37° C., 18 hours; read-out: Minimum Growth Inhibitory Concentration
quantity_name: MIC (µg/mL)
Answers are plain numbers, in µg/mL.

CNCC1CCC(O)C(OC2C(N)CC(OC)C(N(C)C(=O)CN)C2O)O1 (stereo not shown) [Compound No. 1, 2'-Deamino-2'-hydroxyistamycin B]: 3.13
CNCC1CCC(O)C(OC2C(N)CC(O)C(N(C)C(=O)CCN)C2O)O1 (stereo not shown): 0.78
CNCC1CCC(N)C(OC2C(N)CC(OC)C(N(C)C(=O)CN)C2O)O1 (stereo not shown): 0.78

Exam item: Data request, read-out MIC, for CNCC1CCC(O)C(OC2C(N)CC(O)C(N(C)C(=O)CN)C2O)O1 (stereo not shown)
Marked response: 3.13

----------
// MIC collected for Escherichia coli K-12 ML1629
Answers are plain numbers, in µg/mL.

CNCC1CCC(O)C(OC2C(N)CC(OC)C(N(C)C(=O)CCN)C2O)O1 (centres unmarked): 6.25
CNCC1CCC(O)C(OC2C(N)CC(O)C(N(C)C(=O)CN)C2O)O1 (centres unmarked): 6.25
CNCC1CCC(N)C(OC2C(N)CC(OC)C(N(C)C(=O)CN)C2O)O1 (centres unmarked): 1.56
CNCC1CCC(O)C(OC2C(N)CC(O)C(N(C)C(=O)CCN)C2O)O1 (centres unmarked): 3.13

Let us move to another entry and its MIC.
Exam item: Data request, read-out MIC, for CNCC1CCC(O)C(OC2C(N)CC(OC)C(N(C)C(=O)CN)C2O)O1 (centres unmarked) [Compound No. 1, 2'-Deamino-2'-hydroxyistamycin B]
Marked response: 6.25

----------
# Tested on: Pseudomonas aeruguinosa No.12
# assay: Antibacterial spectrum, standard serial dilution method
# Assay type: cell-based, Pseudomonas aeruginosa
# details: Muller-Hinton medium, 37° C., 18 hours, read-out: Minimum Growth Inhibitory Concentration
Consider the following compounds; for each one, report its MIC.
One number for each entry, in µg/mL.

Worked cases, MIC given:
CNCC1CCC(O)C(OC2C(N)CC(O)C(N(C)C(=O)CN)C2O)O1 (centres unmarked) [Compound No. 2]: 25
CNCC1CCC(O)C(OC2C(N)CC(O)C(N(C)C(=O)CCN)C2O)O1 (centres unmarked) [Compound No. 4]: 12.5
CNCC1CCC(O)C(OC2C(N)CC(OC)C(N(C)C(=O)CN)C2O)O1 (centres unmarked) [Compound No. 1, 2'-Deamino-2'-hydroxyistamycin B]: 100
CNCC1CCC(O)C(OC2C(N)CC(OC)C(N(C)C(=O)CCN)C2O)O1 (centres unmarked) [Compound No. 3]: 100

Let us move to another entry and its MIC.
Exam item: Data request, read-out MIC, for CNCC1CCC(N)C(OC2C(N)CC(OC)C(N(C)C(=O)CN)C2O)O1 (centres unmarked) [Istamycin B, istamycin B]
Marked response: 25

----------
Consider the following molecules; for each one, report its MIC.
# Tested on: Staphylococcus epidermidis 109
# assay: Antibacterial spectrum, standard serial dilution method
# Format: cell-based
# details: Staphylococcus epidermidis, 109, 18 h, read-out: Minimum Growth Inhibitory Concentration
Give bare numbers, in mg/L.

CNCC1CCC(O)C(OC2C(N)CC(OC)C(N(C)C(=O)CN)C2O)O1 (stereo not shown) [Compound No. 1, 2'-Deamino-2'-hydroxyistamycin B]: 6.25
CNCC1CCC(O)C(OC2C(N)CC(OC)C(N(C)C(=O)CCN)C2O)O1 (stereo not shown): 3.13
CNCC1CCC(O)C(OC2C(N)CC(O)C(N(C)C(=O)CN)C2O)O1 (stereo not shown): 1.56

Exam item: Data request, read-out MIC, for CNCC1CCC(O)C(OC2C(N)CC(O)C(N(C)C(=O)CCN)C2O)O1 (stereo not shown)
Marked response: 1.56

----------
# Test system: Pseudomonas aeruguinosa H11
# assay: Antibacterial spectrum, standard serial dilution method
# Assay type: cell-based, Pseudomonas aeruginosa
# details: Muller-Hinton medium, 37° C., 18 hours, read-out: Minimum Growth Inhibitory Concentration
quantity_name: MIC

Worked cases, MIC given:
CNCC1CCC(O)C(OC2C(N)CC(O)C(N(C)C(=O)CCN)C2O)O1 (centres unmarked): 12.5 µg/mL
CNCC1CCC(N)C(OC2C(N)CC(OC)C(N(C)C(=O)CN)C2O)O1 (centres unmarked): 50 µg/mL
CNCC1CCC(O)C(OC2C(N)CC(OC)C(N(C)C(=O)CN)C2O)O1 (centres unmarked) [Compound No. 1, 2'-Deamino-2'-hydroxyistamycin B]: > 100 µg/mL
CNCC1CCC(O)C(OC2C(N)CC(OC)C(N(C)C(=O)CCN)C2O)O1 (centres unmarked): 100 µg/mL

Exam item: Data request, read-out MIC, for CNCC1CCC(O)C(OC2C(N)CC(O)C(N(C)C(=O)CN)C2O)O1 (centres unmarked)
Marked response: 25 µg/mL

----------
# Tested on: Pseudomonas aeruguinosa GN315
# assay: Antibacterial spectrum, standard serial dilution method
# Assay type: cell-based, Pseudomonas aeruginosa
# details: Pseudomonas aeruguinosa GN315; Muller-Hinton medium, 37° C., 18 hours; read-out: Minimum Growth Inhibitory Concentration
Consider the following compounds; for each one, report its MIC.
Answers are plain numbers, in mg/L.

CNCC1CCC(O)C(OC2C(N)CC(O)C(N(C)C(=O)CCN)C2O)O1 (stereo not shown): 12.5
CNCC1CCC(N)C(OC2C(N)CC(OC)C(N(C)C(=O)CN)C2O)O1 (stereo not shown): 25
CNCC1CCC(O)C(OC2C(N)CC(OC)C(N(C)C(=O)CCN)C2O)O1 (stereo not shown): 50

Exam item: Data request, read-out MIC, for CNCC1CCC(O)C(OC2C(N)CC(OC)C(N(C)C(=O)CN)C2O)O1 (stereo not shown) [Compound No. 1, 2'-Deamino-2'-hydroxyistamycin B]
Marked response: 100

----------
// MIC collected for Shigella sonnei
One number for each entry, in µg/mL.

Worked cases, MIC given:
CNCC1CCC(O)C(OC2C(N)CC(OC)C(N(C)C(=O)CCN)C2O)O1 (centres unmarked): 6.25
CNCC1CCC(O)C(OC2C(N)CC(O)C(N(C)C(=O)CCN)C2O)O1 (centres unmarked): 3.13
CNCC1CCC(O)C(OC2C(N)CC(OC)C(N(C)C(=O)CN)C2O)O1 (centres unmarked) [Compound No. 1, 2'-Deamino-2'-hydroxyistamycin B]: 6.25
CNCC1CCC(O)C(OC2C(N)CC(O)C(N(C)C(=O)CN)C2O)O1 (centres unmarked): 6.25

Let us move to another entry and its MIC.
Exam item: Data request, read-out MIC, for CNCC1CCC(N)C(OC2C(N)CC(OC)C(N(C)C(=O)CN)C2O)O1 (centres unmarked)
Marked response: 3.13

----------
Consider the following compounds; for each one, report its MIC.
# Test system: Escherichia coli K-12 R388
Give bare numbers, in µg/mL.

CNCC1CCC(O)C(OC2C(N)CC(OC)C(N(C)C(=O)CN)C2O)O1 (centres unmarked) [Compound No. 1, 2'-Deamino-2'-hydroxyistamycin B]: 3.13

Quick one: give me MIC for each item below, same order please.
1. CNCC1CCC(O)C(OC2C(N)CC(OC)C(N(C)C(=O)CCN)C2O)O1 (centres unmarked) [Compound No. 3]
2. CNCC1CCC(O)C(OC2C(N)CC(O)C(N(C)C(=O)CCN)C2O)O1 (centres unmarked) [Compound No. 4]
3. CNCC1CCC(N)C(OC2C(N)CC(OC)C(N(C)C(=O)CN)C2O)O1 (centres unmarked) [Istamycin B, istamycin B]
4. CNCC1CCC(O)C(OC2C(N)CC(O)C(N(C)C(=O)CN)C2O)O1 (centres unmarked) [Compound No. 2]

Marked response:
1: 3.13; 2: 1.56; 3: 1.56; 4: 3.13

Values from patent US4795743A
